Give TGI for every item shown.
system: SNB-19 CNS; experiment: NCI tumour cell line growth inhibition, 48 h

[[record]]
compound = "Cn1cc(C(=O)NCCC(=N)N)cc1NC(=O)C1=[N+](C)C=C(NC(=O)c2cccc(C(=O)NC3=CC(C(=O)Nc4cc(C(=O)NCCC(=N)N)cn4C)=[N+](C)C3)c2)C1"
experimental_result = "> 100 µM"

[[record]]
compound = "CC(=O)NC1C(OCc2ccccc2)OC(CO)C(O)C1OC(C)C(=O)NC(C(=O)N[C@@H](CCC(=O)NCCNCCNc1c2ccccc2nc2cccc([N+](=O)[O-])c12)C(N)=O)C(C)C (some centres undefined)"
experimental_result = "> 100 µM"

[[record]]
compound = "C/C(CC(=O)Nc1ccc([N+](=O)[O-])cc1)=N\\NC(N)=O"
experimental_result = "> 100 µM"

[[record]]
compound = "O=C(NC1=NCC(CN2CCN(c3ccccc3)CC2)O1)Nc1ccccc1 (centres undefined)"
experimental_result = "> 100 µM"


// each listed compound needs a value for TGI
1. COc1cc(C(=O)O[C@H](C(=O)NCCCCCNC(=O)[C@@H](OC(=O)c2cc(OC)cc3c(C)cccc23)[C@]2(C)CO2)[C@]2(C)CO2)c2cccc(C)c2c1
2. C(=C\c1cccs1)/c1cccc(/C=C/c2cccs2)n1
3. CCCCCCCCCCCCCCCCCCNC(=O)C(N)Cc1ccc(OCc2ccccc2)cn1 (centres undefined)

> 20.4 µM
> 100 µM
42.5 µM

----------
test system: UACC-62 melanoma; test: NCI tumour cell line growth inhibition, 48 h
reported metric: TGI

Known TGI results, listed for orientation:
[[record]]
molecule = "C(=C\\c1cccs1)/c1cccc(/C=C/c2cccs2)n1"
experimental_result = "> 100 µM"

[[record]]
molecule = "O=[N+]([O-])/C(C(Cl)=C(Cl)Cl)=C(\\N1CCOCC1)n1nnc2ccccc21"
experimental_result = "46.7 µM"

[[record]]
molecule = "C/C(CC(=O)Nc1ccc([N+](=O)[O-])cc1)=N\\NC(N)=O"
experimental_result = "> 100 µM"


Provide TGI values for the following items, in order.
1. c1ccc2c(c1)cc(C1NCCc3[nH]cnc31)c1ccccc12 (configuration not stated)
2. O=C([CH-]C(=O)c1ccccc1)c1ccccc1.O=C([CH-]C(=O)c1ccccc1)c1ccccc1.[La+3].[OH-].[OH3+]
3. CN(CCCn1c2c(c3ccccc3c1=O)C(=O)c1ccccc1-2)CCCn1c2c(c3ccccc3c1=O)C(=O)c1ccccc1-2
4. C=C(C)C(=O)Nc1ccc(NC(C)C)cc1

1. > 51.1 µM
2. 44.7 µM
3. 45.3 µM
4. > 100 µM

----------
tested on: NCI/ADR-RES ovarian; assay: NCI tumour cell line growth inhibition, 48 h
reported metric: GI50

Guide cases for GI50, answers given:
[[record]]
molecule = "COc1ccc(-c2c[nH]c(C(=O)O)c2-c2cc(OC)c(OC)c(OC)c2)cc1"
experimental_result = "3.8 µM"

[[record]]
molecule = "CC(C)N(Cc1ccccc1)c1c(S)ssc1=S"
experimental_result = "3.33 µM"

[[record]]
molecule = "COc1ccc2c(c1)c(=O)oc1cc(OC/C(C)=N\\O)ccc12"
experimental_result = "> 100 µM"

[[record]]
molecule = "COc1cc(C(=O)O[C@H](C(=O)NCCCCCNC(=O)[C@@H](OC(=O)c2cc(OC)cc3c(C)cccc23)[C@]2(C)CO2)[C@]2(C)CO2)c2cccc(C)c2c1"
experimental_result = "0.165 µM"

[[record]]
molecule = "O=[N+]([O-])O.[Cu+2].[NH-]CC[NH-].[NH-]CC[NH-]"
experimental_result = "> 10 µM"


Name the recorded GI50 for "COc1ccc(/C(COc2ccc3c(=O)cc(-c4ccccc4)oc3c2)=N\O)cc1" . 15.4 µM

----------
tested on: 786-0 renal; experiment: NCI tumour cell line growth inhibition, 48 h
reported metric: GI50

Example results:
[[record]]
molecule = "COc1cnc2c(c1)C(=O)c1c-2n(CCCn2ccnc2)c(=O)c2cc(F)ccc12"
experimental_result = "0.0131 µM"

[[record]]
molecule = "CCC[CH2][Sn]1([CH2]CCC)[O]C(=O)c2cccnc2[O]1"
experimental_result = "2.62 µM"

[[record]]
molecule = "Cc1c(C(N)=O)sc2c1C(=O)N(Cc1ccccc1)C1=NN=C(c3ccc(Cl)cc3)CN12"
experimental_result = "2.65 µM"


State the recorded GI50 for every item in the following list.
1. COc1ccc(/C(COc2ccc3c(=O)cc(-c4ccccc4)oc3c2)=N\O)cc1
2. COc1cc(C[C@H]2c3cc(OC)c(OC)cc3CCN2C)c(Oc2cc3c(cc2OC)-c2c(OC)c(OC)cc4c2[C@H](C3)N(C)CC4)cc1OC
3. O=[N+]([O-])O.[Cu+2].[NH-]CC[NH-].[NH-]CC[NH-]
4. CN[C@@H](C)C(=O)N[C@H](C(=O)N1CCC[C@H]1C(=O)Nc1snnc1-c1ccccc1)C1CCCCC1
5. O=C(CCCCCCCCC(=O)N/N=C\c1ccccc1O)N/N=C\c1ccccc1O
6. C=C1C(=O)O[C@H]2[C@H]1CC/C(COC(=O)NCc1cn(C)c3ccccc13)=C\CC[C@@]1(C)O[C@@H]21
7. COc1cc(CSc2nc3ccc(C)cc3c(=O)n2-c2ccccc2)cc(OC)c1OC
8. C#Cc1c(F)ccc2cc(O)cc(-c3ncc4c(N5CC6CCC(C5)N6)nc(OC[C@@]56CCCN5C[C@H](F)C6)nc4c3F)c12

1: 17.2 µM; 2: 8.97 µM; 3: > 10 µM; 4: 62.8 µM; 5: 0.334 µM; 6: 0.685 µM; 7: 6.56 µM; 8: 15 µM

Respectfully, I request GI50 for each entry included below.
1. CCN(CC)CCCCNc1c2ccccc2[n+](C)c2c1[nH]c1ccccc12
2. COc1c(C)c2c(c(O)c1C/C=C(\C)CCC(=O)O)C(=O)OC2

1. 1.29 µM
2. 0.326 µM

Field: GI50. Fill in for each record below.
1. CN(C)CCN1C(=O)c2ccccc2N(C)c2ccccc21
2. Cc1nn2c(/C=C3\C(=O)Nc4ccc(Cl)cc43)c(C)nc2s1
3. COc1ccc(-c2nc(-c3nc4ccc(OC)cc4[nH]3)c3ccccn23)cc1
4. C=C(C)C(=O)O[C@H]1CC(=C)[C@@H]2C[C@H](O)[C@](O)(CCl)[C@@H]2[C@H]2OC(=O)C(=C)[C@@H]21

1: > 100 µM; 2: 33.7 µM; 3: 8.47 µM; 4: 1.93 µM

----------
Assignment: determine reported log10 of TGI for the given molecules.
test system: NCI-H226 lung; experiment: NCI tumour cell line growth inhibition, 48 h
The common logarithm of TGI in µM is what is listed.

[[record]]
molecule = "O=C(ON=C1c2ccccc2C(Br)C(Br)c2ccccc21)c1cc([N+](=O)[O-])cc([N+](=O)[O-])c1 (stereo unspecified)"
experimental_result = 1.69

[[record]]
molecule = "COC(=O)C1(C(=O)OC)Cc2ccc(OC)cc2C2=C1C(=O)c1ccccc1C2=O"
experimental_result = 1.57

[[record]]
molecule = "O=C(c1cccs1)N(C(=S)N1CCN(c2ccccn2)CC1)c1ccccc1"
experimental_result = 1.93

[[record]]
molecule = "NC(N)=N/N=C/c1c(-c2ccc(Cl)cc2)nc2sccn12"
experimental_result = 0.87


--- query ---
Need log10 of TGI, item "COc1cnc2c(c1)C(=O)c1c-2n(CCCn2ccnc2)c(=O)c2cc(F)ccc12" -0.67

----------
Kindly supply the reported TGI values for the records listed here.
test system: COLO 205 colon; test: NCI tumour cell line growth inhibition, 48 h

Example results:
[[record]]
compound = "O=C(O)CNC(=O)c1ccc(-c2ccccc2)cc1"
reported_metric = "TGI"
experimental_result = "> 100 µM"

[[record]]
compound = "NC(=O)N/N=C(\\CC1OC(=O)c2ccccc21)c1ccco1 (stereo unspecified)"
reported_metric = "TGI"
experimental_result = "> 100 µM"

[[record]]
compound = "O=c1[nH]c2cc(Cl)ccc2nc1/C(=N\\O)C(O)c1cccc([N+](=O)[O-])c1 (stereo unspecified)"
reported_metric = "TGI"
experimental_result = "> 100 µM"


# batch size: 7; output TGI per entry
1. COc1ccc(-c2cc(=O)[nH]c3c(OC)c4ccccc4c(OC)c23)cc1
2. O=C1/C(=C/c2cccc(Br)c2)CCc2ccccc21
3. CSc1nc(C#N)c(/N=C\N(C)C)n1C
4. CCCCOC(=O)C1C2CCC(O2)C1C(=O)OCCCC (stereo unspecified)
5. Cc1ccc2c(c1)[nH]c(=S)n2/C=C1\C(=O)Oc2ccccc2C1=O
6. COc1cc(O)c2c(=O)cc(-c3ccc(O)cc3O)oc2c1CC=C(C)C
7. COC(=O)c1ccc(C)cc1CC1Cc2cc(C)ccc2C1=O (stereo unspecified)

1. 3.52 µM
2. 40.8 µM
3. > 100 µM
4. > 57.3 µM
5. > 100 µM
6. 26.7 µM
7. > 100 µM

GET /values?readout=TGI&item= COc1cc([C@@H]2OC[C@@H]3C(c4cc(OC)c5c(c4)OCO5)OC[C@@H]32)cc(OC)c1OC (stereo partly specified) > 100 µM
